Reference for the values: patent US8389555B2

Target: human dopamine D3 receptors (Homo sapiens, UniProt P35462)
Sequence (P35462 whole entry): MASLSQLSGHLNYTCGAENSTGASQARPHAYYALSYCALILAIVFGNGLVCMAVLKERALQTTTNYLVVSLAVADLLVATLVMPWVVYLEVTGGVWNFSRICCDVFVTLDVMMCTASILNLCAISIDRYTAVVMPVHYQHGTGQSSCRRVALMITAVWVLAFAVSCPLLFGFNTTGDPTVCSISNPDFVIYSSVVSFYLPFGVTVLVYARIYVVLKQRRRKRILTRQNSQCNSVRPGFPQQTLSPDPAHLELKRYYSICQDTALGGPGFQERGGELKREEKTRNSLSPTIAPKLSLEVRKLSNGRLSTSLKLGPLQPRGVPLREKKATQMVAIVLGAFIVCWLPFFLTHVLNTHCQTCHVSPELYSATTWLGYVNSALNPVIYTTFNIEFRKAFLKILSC
Assay: Dopamine D3 receptor binding assay ([3H]spiperone, CHO cell membranes)
Conditions: human D3 receptors in CHO cells, 0.2 nM [3H]spiperone, mean ± SEM; read-out: Affinity Ki (D3)
Method: Compounds synthesized in Examples A, B, C and D were assayed to test their affinity for dopamine D3 and D2 receptors. METHODS: Dopamine D2S and D3 Receptor Binding Assays Human D3 receptors stably expressed in CHO cells were used as described by Sokoloff et al. (Sokoloff, P. et al., Eur. J. Pharmacol. 1992, 225, 331-337). […]
Experimental readout: log10 of Ki (log10 of the value in nM)

1. CCCN(CCCCNC(=O)c1ccc2ccccc2c1)C1CCc2ncsc2C1 (stereo not drawn)	0.06
2. CCCN(CCCCNC(=O)C12CC3CC(CC(C3)C1)C2)C1CCc2ncsc2C1 (stereo not drawn)	-0.02
3. CCCN(CCCCNC(=O)N1CCN(c2ccccc2)CC1)C1CCc2ncsc2C1 (stereo not drawn)	0.32
4. CCN(CCNC(=O)c1ccc2ccccc2c1)C1CCc2ncsc2C1 (stereo not drawn)	1.83
5. CCCN(CCCCNC(=O)c1ccc2ncsc2c1)C1CCc2ncsc2C1 (stereo not drawn)	-0.19
6. CCN(CCCN1CCN(c2ccccc2OC)CC1)C1CCc2ncsc2C1 (stereo not drawn)	1.95
7. CCCN(Cc1ccc(C(=O)NC2Cc3ccccc3C2)cc1)C1CCc2ncsc2C1 (stereo not drawn)	2.92
8. CCCN(CCCCNC(=O)C=Cc1ccc(F)cc1)C1CCc2ncsc2C1 (stereo not drawn)	-0.24
9. CCCN(CCCCNC(=O)N1CCC(c2ccccc2)CC1)C1CCc2ncsc2C1 (stereo not drawn)	0.80
